# Tested on: S. typhimurium/E. coli reverse mutation, colony counts
# Procedure Text: Bacterial reverse mutation test (aka Ames test) summary data
Inconclusive results are not listed. Activity calls are given as the source filed them. How the calls were made is not given here.
Permitted responses: TRUE = active, FALSE = inactive

C=CC(=O)OCCN(C)C = FALSE
CC[C@H]1OC(=O)[C@H](C)[C@@H](O[C@H]2C[C@@](C)(OC)[C@@H](O)[C@H](C)O2)[C@H](C)[C@@H](O[C@@H]2O[C@H](C)C[C@H](N(C)C)[C@H]2O)[C@](C)(O)C[C@@H](C)C(=O)[C@H](C)[C@@H](O)[C@]1(C)O = FALSE

Just curious, what result did `OC[C@@H](O)[C@@H](O)[C@H](O)[C@H](O)CO` get here?
FALSE

Entry `O=[N+]([O-])c1ccc(O)c([N+](=O)[O-])c1` : call = ?
FALSE

Recorded test outcome, item `CCOC(C)=O`
FALSE

What classification did `[CH3][Sn]([CH3])([F])[F]` end up with in this test?
FALSE

Outcome? `Clc1ccc(Cl)c(Cl)c1Cl`
FALSE

Hi, do you know how `c1cnc2c(c1)ccc1cccnc12` came out in this test?
FALSE

Called result for `Cc1cc(N=Nc2ccccc2C)ccc1N`
TRUE

Hey, what did the test say about `Brc1ccc(Oc2ccc(Br)cc2Br)c(Br)c1` ?
FALSE

Called result for `O=C1OC(=O)c2cc([N+](=O)[O-])ccc21`
TRUE

###

# System: S. typhimurium/E. coli reverse mutation, colony counts
# Procedure Text: Bacterial reverse mutation test (aka Ames test) summary data
Results filed as inconclusive are left out. Activity calls are given as the source filed them. The rule behind the calls is not given here.
Respond only with the outcome that fits, drawn from True = active, False = inactive

Check out these entries, answers already filled in.
CCCCCCCC(=O)OCC(COC(=O)CCCCCCC)OC(=O)CCCCCCC = True
CCc1ccccc1 = False
O=[N+]([O-])c1ccc(Nc2ccc(O)cc2)c([N+](=O)[O-])c1 = True
Nc1ccccn1 = False
CCC(Br)(CC)C(=O)NC(N)=O = False

Answer briefly: the call reported for `CC(=O)CC(C)(C)O` in this assay.
False

###

# Tested on: S. typhimurium/E. coli reverse mutation, colony counts
# Procedure Text: Bacterial reverse mutation test (aka Ames test) summary data
Records with an inconclusive call do not appear. Activity calls are given as the source filed them. The rule behind the calls is not given here.
Pick from class 1 for active, class 0 for inactive when you respond.

CCCCCCN = class 0
C1OCOCO1 = class 0
CN = class 0

Fill in: this test's call for `CC(C)(Cl)[N+](=O)[O-]` is ___
class 1

GET /call?item= `CC(=O)CC(C)C` returns the recorded outcome of this test.
class 0

What did the test return for `CC(=O)Oc1ccccc1C(=O)O` ?
class 0

What classification did `c1cc2ccc3cccc4ccc(c1)c2c34` end up with in this test?
class 1

Can you look up the reported call for `COP(=O)(O)O` for me?
class 0

Please state the recorded outcome for this molecule: `Cc1cccc(C)c1O`
class 0

###

# System: S. typhimurium/E. coli reverse mutation, colony counts
# Procedure Text: Bacterial reverse mutation test (aka Ames test) summary data;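 further: His-minus Salmonella and trp-minus E. coli WP2 uvrA pKM101 with or without liver S9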
Records with an inconclusive call do not appear. The source made the active and inactive calls. The rule behind the calls is not given here.
Lab note: assign the record to one of yes (1) = active, no (0) = inactive

Some entries whose results are on file:
CCCCCCCC(=O)O = no (0)
CC(C)(O)C#N = no (0)
CC=C(C)C#N = no (0)
Nc1ccc(Cl)cc1 = yes (1)
Clc1ccc(C(c2ccccc2Cl)C(Cl)Cl)cc1 (stereo unspecified) = no (0)

Recorded test outcome, item `COc1c(Cl)c(Cl)c(Cl)c(Cl)c1Cl`
yes (1)

Hi, sorry to bother you, what did the test record for `CCCCCO` ?
no (0)

# fetch the recorded call for `O=c1ccc2ccccc2o1` here
yes (1)

Can you look up the reported call for `O=C1CCCCCN1` for me?
no (0)

Give the logged outcome of this assay for the following compound: `CC(C)(C)C(=O)C1C(=O)c2ccccc2C1=O`
no (0)

Identify the outcome logged in this assay for the compound shown: `NC(=NCCCCCCN=C(N)/N=C(\N)Nc1ccc(Cl)cc1)/N=C(\N)Nc1ccc(Cl)cc1`
no (0)

State the result this test recorded for `O=[N+]([O-])c1c(Cl)cc(Cl)cc1Cl` .
no (0)

Returns: the outcome recorded for `Cc1cc(=O)oc2cc(O)ccc12` in this assay.
no (0)

Answer briefly: the call reported for `NC(=O)NNC(N)=O` in this assay.
no (0)

# outcome recorded in this test, key = `Oc1cc(Cl)ccc1Cl`
no (0)

Dear colleague, could you share the recorded outcome for `CCNC(=O)CC(C)=O` when you have a moment?
no (0)

###

# Test system: S. typhimurium/E. coli reverse mutation, colony counts
# Procedure Text: Bacterial reverse mutation test (aka Ames test) summary data;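 further: His-minus Salmonella and trp-minus E. coli WP2 uvrA pKM101 with or without liver S9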
Records with an inconclusive call do not appear. Activity calls are given as the source filed them. How the calls were made is not given here.
In this exercise, the only acceptable responses are 1 (yes) (active), 0 (no) (inactive)

Below, 10 compounds whose answers are already recorded.
C=CCSSCCC = 0 (no)
CCOc1cccc(N)c1 = 1 (yes)
CCc1cc(C(N)=S)ccn1 = 0 (no)
N#CCCO = 0 (no)
CCCC[N+]1(C)CCCC1 = 0 (no)
O.O.O.O.O.O.O.O=S(=O)([O-])[O-].[Co+2] = 1 (yes)
c1cc(OCC2CO2)cc(OCC2CO2)c1 (configuration not stated) = 1 (yes)
C = 0 (no)
COC(=O)CCCCC(=O)OC = 0 (no)
Brc1ccc(-c2ccccc2)cc1 = 0 (no)

What classification did `CNc1ccc2nc3ccc(=[N+](C)C)cc-3sc2c1` end up with in this test?
1 (yes)

# lookup: test call for `CN(C)C(=S)N(C)C`
0 (no)

In this assay, the call recorded for `O=C1NC(=O)C(O)(O)C(=O)N1` was what?
0 (no)

###

# System: S. typhimurium/E. coli reverse mutation, colony counts
# Procedure Text: Bacterial reverse mutation test (aka Ames test) summary data;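 further: His-minus Salmonella and trp-minus E. coli WP2 uvrA pKM101 with or without liver S9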
Results filed as inconclusive are left out. Active and inactive are the calls of the source. No rule for the calls is given here.
Parameter: outcome

// known answers, use as guide
CCCCCCCCCCCCS = inactive; negative
CC/C=C\C/C=C\C/C=C\CCCCCCCC(=O)O = active; weakly positive
CSSC = inactive; negative
NC(N)=S = inactive; negative
c1ccccc1 = inactive; negative
Cc1ccc(O)c(N)c1 = active; positive
CCCCCNCCCCC = inactive; negative
Cc1noc(NS(=O)(=O)c2ccc(N)cc2)c1C = inactive; negative
CNC(=S)N(C)C = inactive; negative
CN(C)c1ccc(Cc2ccc(N(C)C)cc2)cc1 = active; positive

Could you please provide reported outcome for `O=c1oc2c(O)c(O)cc3c(=O)oc4c(O)c(O)cc1c4c23` ? Thanks!
inactive; negative

Tell me outcome reported for `C=C1C/C(=C/C)C(=O)O[C@@H]2CCN3CC=C(COC(=O)[C@]1(C)O)[C@H]23`
active; positive

Query outcome for `C=C1C/C(=C/C)C(=O)O[C@@H]2CCN3CC=C(COC(=O)[C@@]1(O)CO)[C@H]23`
active; positive

Read the entry CCC(=O)C=CC1C(C)=CCCC1(C)C (centres undefined) and write its reported outcome.
inactive; negative

Answer with reported outcome of CC(=O)OC1CC(C)OC(C)O1 (centres undefined)
active; positive

Provide outcome value for the following compound: `CC[C@H](CC[C@@H](C)[C@H]1CC[C@H]2[C@@H]3CC=C4C[C@@H](O)CC[C@]4(C)[C@H]3CC[C@]12C)C(C)C`
inactive; negative

For `C[C@]12C=CC(=O)C=C1CC[C@@H]1[C@@H]2C(=O)C[C@@]2(C)[C@H]1CC[C@]2(O)C(=O)CO` , write its outcome.
active; positive

Hello, please tell me recorded outcome for this one: `Clc1c(Cl)c(Br)c2c(c1Cl)-c1nc-2nc2[n-]c(nc3nc(nc4[n-]c(n1)c1c(Cl)c(Br)c(Cl)c(Br)c41)-c1c(Cl)c(Cl)c(Br)c(Cl)c1-3)c1c(Br)c(Cl)c(Br)c(Cl)c21.[Cu+2]`
active; positive

Look up outcome of `O=[N+]([O-])c1c2ccccc2cc2ccccc12` and report it.
active; positive

###

# Tested on: S. typhimurium/E. coli reverse mutation, colony counts
# Procedure Text: Bacterial reverse mutation test (aka Ames test) summary data;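 further: His-minus Salmonella and trp-minus E. coli WP2 uvrA pKM101 with or without liver S9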
Results filed as inconclusive are left out. Calls of active or inactive are those of the source. The rule behind the calls is not given here.
API: response.call in active, inactive

COc1cc([C@H]2Oc3cc([C@H]4Oc5cc(O)cc(O)c5C(=O)[C@@H]4O)ccc3O[C@@H]2CO)ccc1O = inactive
Oc1ccc(/C=C/c2cc(O)cc(O)c2)cc1 = inactive
O=[N+]([O-])c1cc(Cl)c(Cl)cc1Cl = active
CN(C)CCCCl = active

Assay outcome for `CC(=O)c1ccc(S(=O)(=O)NC(=O)NC2CCCCC2)cc1` : what was it?
inactive

Hi, do you know how `Cc1cc(O)c2c(c1)C(=O)c1cc(O)cc(O)c1C2=O` came out in this test?
active
